Taken from ChEMBL document CHEMBL1201862.

Tested on: MCF7
Assay: NCI tumour cell line growth inhibition, 48 h
Activity calls are given as the source filed them. No stated cut-off is given here; in the data, active = GI50 up to about 1.1 µM and inactive = higher.
Please reply with one of these outcomes: T for active, F for inactive

QUERY: Record request — test call for COC1=CC23CCCN2CCc2cc4c(cc2C3C1O)OCO4 (stereo not given)
RESULT: F

QUERY: Record request — test call for c1cc2c(cc1C(N1CCNCC1)N1CCNCC1)OCO2
RESULT: F

QUERY: Record request — test call for Cc1ccc(-c2cc(-c3ccco3)c(C#N)c(=S)[nH]2)cc1
RESULT: F

QUERY: Record request — test call for CCCCCCCCCCCCC(=O)OC(c1cnco1)c1nc(C(O)CC(O)C(O)C(C)O)co1 (stereo not given)
RESULT: T

QUERY: Record request — test call for OCCN(C1=NCCN1)/[N+](=C/c1ccc(Cl)cc1)[CH-]c1ccc(Cl)cc1
RESULT: F

QUERY: Record request — test call for CN(C)CCCNc1ccc([N+](=O)[O-])c2nc3ccccc3c(N)c12
RESULT: T

QUERY: Record request — test call for C=C(C)CCN(C(=O)OC(C)(C)C)c1cc(C(C)C)co1
RESULT: F

QUERY: Record request — test call for Cc1ccc([N+](=O)[O-])cc1S(=O)(=O)Nc1ccc(C2=NN(c3ccc([N+](=O)[O-])cc3[N+](=O)[O-])C(c3ccccc3O)C2)cc1 (stereo not given)
RESULT: F

QUERY: Record request — test call for COc1ccc(-n2c3c(c4cc(O)ccc42)Cc2ccccc2C3=O)cc1
RESULT: F

QUERY: Record request — test call for O=C1C2CC=CCC2C(=O)N1n1c(-c2ccccc2)n[nH]c1=O (stereo not given)
RESULT: F
